Assay: alamarBlue cytotoxicity assay, Caco-2 cells
Assay type: cell-based, human
Conditions: human, Caco-2, 72 h exposure, alamarBlue; read-out: IC50 (cytotoxic level)
Numbered stars: 1 amine (or outer) side, 2 acyl side, 3 side chain; on linkers, the order of the positions; unused ones are H or OH. Bridge positions count the residues as written; N and C are the ends. Square brackets hold non-standard residues; d marks the D form. Peptide text beside a SMILES is read from it. X2 = CC(C)CCCCCCCCC[C@H](CC(=O)[*:1])O[*:2]
outcomeMeasure: IC50 (µg/mL)

molecule | quantityUnit | quantitativeReadout
CC(C)CCCCCCCCC[C@@H]1CC(=O)N[C@@H](CCC(=O)O)C(=O)N[C@@H](CC(C)C)C(=O)N[C@H](CC(C)C)C(=O)N[C@@H](C(C)C)C(=O)N[C@@H](CC(=O)O)C(=O)N[C@H](CC(C)C)C(=O)N[C@@H](CC(C)C)C(=O)O1 [Surfactin] (EL[dL]VD[dL]L; linker N-C via X2) | µg/mL | 23.5
